- assay.details: cytotoxicity toward DRD oncogenic fibroblasts, dose response, cell-based, non-viral oncogenic, luminescence (AID 1934)
- Type: functional
- conditions: Homo sapiens
Calls of active or inactive are those of the source. No stated cut-off is given here; in the data, actives have a measured EC50 and inactives only a lower limit.
measured.attribute: EC50

// below: answered molecules
| smiles.entry | EC50 |
| --- | --- |
| O=C(/C=C/Sc1nc[nH]n1)c1ccc(Cl)cc1 | 5.81 µM (active) |
| CCCN1C/C(=C/c2ccc3c(c2)OCO3)C(=O)/C(=C/c2ccc3c(c2)OCO3)C1 | 4.99 µM (active) |
| COc1ccc(OC)c(NS(=O)(=O)c2ccc(N3CCCC3=O)cc2)c1 | 0.463 µM (active) |

Switching to the query record.
Query block: // query EC50 value for entry Cc1ccc(-c2cc3c(N=O)c4ccccc4c-3[nH]n2)cc1
Result block: 6.32 µM (active)

Provenance of the data: ChEMBL document CHEMBL1201862
